IC50 listing for selected compounds.
- Assay System: C. elegans PDE4 catalytic domain (Caenorhabditis elegans, UniProt Q22000)
- Construct: The catalytic domain (amino acid residues 275–608) of C. elegans PDE4 isoform h (Uniprot ID: S6FCW6); made in house; host or cells: E. coli BL21(DE3)
- Sequence (Q22000 325-658): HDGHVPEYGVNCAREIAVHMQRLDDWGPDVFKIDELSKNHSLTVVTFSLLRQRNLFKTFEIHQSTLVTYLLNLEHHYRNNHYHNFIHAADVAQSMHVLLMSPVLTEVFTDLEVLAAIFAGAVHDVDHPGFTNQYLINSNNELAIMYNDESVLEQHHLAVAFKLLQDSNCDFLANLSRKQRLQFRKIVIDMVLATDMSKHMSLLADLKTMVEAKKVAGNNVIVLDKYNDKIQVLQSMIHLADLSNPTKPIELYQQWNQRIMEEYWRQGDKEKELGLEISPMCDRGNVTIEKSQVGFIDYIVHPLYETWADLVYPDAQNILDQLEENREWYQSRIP
- Measurement Protocol: Inhibition of cAMP hydrolysis by recombinant C. elegans PDE4 catalytic domain (radiotracer assay)
- Format: biochemical
Numbers only here, please. The scale is µM.

In [3]: df
Out[3]:
                                   compound  test_value
0  O=C(Nc1c(Cl)cncc1Cl)c1ccc(OC(F)F)c(OCC2CC2)c1 [Roflumilast]        0.73

Proceed to the following item.
Input line: # get_value(readout='IC50', item= COc1cc(-c2ccc(=O)[nH]n2)ccc1OC(F)F [Zardaverine] )
Output line: 146
